Molecular target: T1, ovalbumin protein (UniProt P01012 2-386)
T1 sequence (looked up): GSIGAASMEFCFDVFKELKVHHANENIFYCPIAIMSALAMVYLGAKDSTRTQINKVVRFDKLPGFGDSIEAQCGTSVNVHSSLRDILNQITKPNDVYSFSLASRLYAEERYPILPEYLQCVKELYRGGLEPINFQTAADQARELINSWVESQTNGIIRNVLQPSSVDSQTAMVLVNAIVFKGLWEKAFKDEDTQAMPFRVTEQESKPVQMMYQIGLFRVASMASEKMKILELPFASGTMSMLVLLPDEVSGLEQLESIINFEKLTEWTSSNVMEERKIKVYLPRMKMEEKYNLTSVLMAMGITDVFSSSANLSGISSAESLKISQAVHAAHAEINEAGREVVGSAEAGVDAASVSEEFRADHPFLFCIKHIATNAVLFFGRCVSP
Test: FMAT bead immunoassay, culture supernatant

binder: 4D4 mouse monoclonal antibody (antibody, V domains shown, Mouse hybridoma antibody) VH: EVQLQQSGAELVEPGASVKLSCTGSGFNIKVYYVHWLKQLTEQGLEWIGRIDPENGETLYTPKFQGKATLTVDTSSNTAYLQLNSLTSEDTAVYYCVSSGYWGQGTSLTVSS VL: DIVMTQSAFSNPVTLGTSASISCRSSKSLLHRNGITYLYWYLQKPGQSPQLLIYQMSNLASGVPDRFTSSGSGTDFTLKISRVEAEDVGVYYCAQNLELWTFGGGTKLEIK
binding result: no binding
--
binder: 14B3 mouse monoclonal antibody (antibody, V domains shown, Mouse hybridoma antibody) VH: EVQLQQSGAELVEPGASVKLSCTGSGFNIKVYYVHWLKQLTEQGLEWIGRIDPENGETLYTPKFQGKATFTVDTSSNTAYLQLSSLTSEDTAVYYCVSSGYWGQGTTLTVSS VL: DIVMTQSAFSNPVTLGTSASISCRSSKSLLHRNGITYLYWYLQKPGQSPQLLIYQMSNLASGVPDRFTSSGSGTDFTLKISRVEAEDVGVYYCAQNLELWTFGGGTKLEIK
binding result: no binding
--
binder: 16D4 mouse monoclonal antibody (antibody, V domains shown, Mouse hybridoma antibody) VH: EVQLQQSGAELVKPGASVKLSCTASGFNIKDYYMHWLKQLTEQGLEWIGRIDPENGETQYAPKFQGKASLTADTSSNTAYLHLSSLTSEDTAVYYCVSSGYWGQGTTLTVSS VL: DIVMTQAAFSNPVTLGTSASISCRSSKSLLHSNGITYLYWYLQKPGQSPQLLIYQMSNLASGVPDRFSSSGSGTDFTLRISRVEAEDVGVYYCAQNLELWTFGGGTKLEIK
binding result: no binding
